Test system: beige adipocytes
Experiment Description: Lipolysis validation assays of primary hits at three concentrations
Format: cell-based, human
Details: Homo sapiens, Adipocyte, 24 h; Conc. 20 µM; read-out: % of Control (1)
Counter-ions that a name gives are not always drawn.
Endpoint: activity at 20 µM (%)
The answer is to be given in %; state only the numeric part.

These recorded examples may help you get a feel for the data.
Molecule	activity at 20 µM (%)
CC(Oc1c(Cl)cccc1Cl)C1=NCCN1 (centres unmarked) [Lofexidine HCl]	205
CCOC(=O)C1=C(C)NC(C)=C(C(=O)OC)C1c1cccc(Cl)c1Cl (centres unmarked)	291
Nc1nc(CC(=O)Nc2ccc(CCNC[C@H](O)c3ccccc3)cc2)cs1	200
CC(=O)Nc1ccccc1 [Acetanilide]	298

The value of activity at 20 µM recorded for `Cc1cc(C)c(/C=C2\C(=O)Nc3ccccc32)[nH]1` when tested on beige adipocytes reads 283

----------
Tested on: beige adipocytes
Experiment Description: Lipolysis validation assays of primary hits at three concentrations
Format: cell-based, human
Details: Homo sapiens, Adipocyte, 24 h; Conc. 20 µM; read-out: % of Control (1)
Where a name gives a salt, the structure may show the parent alone.
We begin with a simple list: items and their reported activity at 20 µM.
Only the number, expressed in %, is required.

Before answering, review these 5 worked examples.
Compound	Endpoint	Units Of Measure	Obs Value
CC(C)NCC(O)c1ccc(O)c(O)c1 (stereo not drawn) [Isoproterenol HCl]	activity at 20 µM	%	289
CC(C)C[C@H](NC(=O)CNC(=O)c1cc(Cl)ccc1Cl)B1OC(=O)C(CC(=O)O)(CC(=O)O)O1	activity at 20 µM	%	138
CCc1cnn2c(NCc3ccc[n+]([O-])c3)cc(N3CCCC[C@H]3CCO)nc12	activity at 20 µM	%	291
O=C(Nc1c[nH]nc1-c1nc2ccc(CN3CCOCC3)cc2[nH]1)NC1CC1	activity at 20 µM	%	132
COc1cc2c(cc1OC)-c1c/c(=N\c3c(C)cc(C)cc3C)n(C)c(=O)n1CC2 [Trequinsin HCl]	activity at 20 µM	%	284

The recorded activity at 20 µM for entry CNC[C@H](O)c1cccc(O)c1 [Phenylephrine HCl] equals 353

activity at 20 µM recorded for this compound, O=C1CN2Cc3c(ccc(Cl)c3Cl)N=C2N1 [Anagrelide HCl] , is 196

Notebook: CCC(NC(C)C)C(O)c1ccc(O)c(O)c1 (stereo not drawn) [Isoetharine Mesylate] , activity at 20 µM read as 417

# activity at 20 µM of `C=C[C@@]1(C)CC(=O)[C@]2(O)[C@@]3(C)[C@@H](O)CCC(C)(C)[C@@H]3[C@H](O)[C@H](OC(C)=O)[C@@]2(C)O1` = 417

----------
System: beige adipocytes
Experiment Description: Lipolysis validation assays of primary hits at three concentrations
Format: cell-based, human
Details: Homo sapiens, Adipocyte, 24 h; Conc. 6.7 µM; read-out: % of Control (4)
Counter-ions that a name gives are not always drawn.
Quick rule: activity at 6.7 µM of at least 200% means condition met, below that means condition not met.

Molecule	Class Name
CC(=O)Nc1ccccc1 [Acetanilide]	condition met
O=C1CN2Cc3c(ccc(Cl)c3Cl)N=C2N1 [Anagrelide HCl]	condition not met
CC[C@@H]1C(=O)OC[C@@H]1Cc1cncn1C [Pilocarpine nitrate]	condition not met
Cc1cc(C)c(/C=C2\C(=O)Nc3ccccc32)[nH]1	condition met

Query: Identify whether the reported activity at 6.7 µM of the following molecule is 200% or greater: COc1cc2c(cc1OC)-c1c/c(=N\c3c(C)cc(C)cc3C)n(C)c(=O)n1CC2 [Trequinsin HCl]
Reply: condition met

Query: # bool: activity at 6.7 µM of CC(Oc1c(Cl)cccc1Cl)C1=NCCN1 (stereo not drawn) [Lofexidine HCl] >= 200%
Reply: condition not met

Query: Determine whether measured activity at 6.7 µM meets or exceeds 200% for CCC(NC(C)C)C(O)c1ccc(O)c(O)c1 (stereo not drawn) [Isoetharine Mesylate]
Reply: condition met

Query: Please tell me: is the molecule `CCc1cnn2c(NCc3ccc[n+]([O-])c3)cc(N3CCCC[C@H]3CCO)nc12` at or over 200% in terms of activity at 6.7 µM?
Reply: condition not met

Query: // inclusive: activity at 6.7 µM at least 200%? input: `C=C[C@@]1(C)CC(=O)[C@]2(O)[C@@]3(C)[C@@H](O)CCC(C)(C)[C@@H]3[C@H](O)[C@H](OC(C)=O)[C@@]2(C)O1`
Reply: condition met

----------
System: beige adipocytes
Experiment Description: Lipolysis validation assays of primary hits at three concentrations
Format: cell-based, human
Parameters: unit of the concentration uncertain
Details: Conc. 20 (unit uncertain)
Endpoint: % of Control (4)

Answered examples (4):
Compound	Tested Target	% of Control (4)
CC1(C)C(=O)N(CCN2CCC(C(=O)c3ccc(F)cc3)CC2)c2ccccc21 [LY-310, 762]	beige adipocytes	201.38 % of Control
CO[C@H]1CC[C@@H](O[C@H]2C[C@H]([C@]3(C)CC[C@]4(C[C@H](O)[C@@H](C)[C@@H]([C@@H](C)/C=C(\C)C(=O)[C@H](C)C[C@H](C)C(=O)O)O4)O3)O[C@]3(O[C@@H]([C@H]4O[C@@](O)(CO)[C@H](C)C[C@@H]4C)C[C@@H]3C)[C@@H]2C)O[C@@H]1C [Nanchangmycin]	beige adipocytes	168.85 % of Control
COc1ccc(-c2cc3c(C)nc(N)nc3n([C@H]3CC[C@H](OCCO)CC3)c2=O)cn1 [PF-04691502]	beige adipocytes	302.07 % of Control
Cc1ccccc1N1CCN(S(=O)(=O)C[C@]23CC[C@H](C[C@@H]2NC(=O)[C@@H](N)CCS(C)(=O)=O)C3(C)C)CC1 [L-368, 899]	beige adipocytes	166.21 % of Control

// sample Cc1ccc([N+](=O)[O-])cc1S(=O)(=O)N(C)/N=C/c1cnc2ccc(Br)cn12 [PIK-75] , its % of Control (4) was 233.79 % of Control

----------
// reported activity at 6.7 µM per item
Test system: beige adipocytes
Experiment Description: Lipolysis validation assays of primary hits at three concentrations
Type: cell-based, human
Details: Homo sapiens, Adipocyte, 24 h; Conc. 6.7 µM; read-out: % of Control (1)
Counter-ions that a name gives are not always drawn.
Give your result in % as a bare value.

// below: answered molecules
Molecule	Units Of Measure	activity at 6.7 µM
CC(Oc1c(Cl)cccc1Cl)C1=NCCN1 (stereo not drawn) [Lofexidine HCl]	%	122
O=C1CN2Cc3c(ccc(Cl)c3Cl)N=C2N1 [Anagrelide HCl]	%	195
CC(C)NCC(O)c1ccc(O)c(O)c1 (stereo not drawn) [Isoproterenol HCl]	%	284
CC(=O)Nc1ccccc1 [Acetanilide]	%	252
O=C(Nc1c[nH]nc1-c1nc2ccc(CN3CCOCC3)cc2[nH]1)NC1CC1	%	151

Fill in: beige adipocytes activity at 6.7 µM for `CCc1cnn2c(NCc3ccc[n+]([O-])c3)cc(N3CCCC[C@H]3CCO)nc12` = 180

Recorded activity at 6.7 µM for CNC[C@H](O)c1cccc(O)c1 [Phenylephrine HCl] on beige adipocytes was 271

Entry `C[n+]1cc2c3c(ccc2c2ccc4cc5c(cc4c21)OCO5)OCO3` , beige adipocytes data, activity at 6.7 µM value: 218

The measured activity at 6.7 µM that `C[C@@H]1CC(=O)NN=C1c1ccc(NN=C(C#N)C#N)cc1` showed for beige adipocytes is 197

Result for CCC(NC(C)C)C(O)c1ccc(O)c(O)c1 (stereo not drawn) [Isoetharine Mesylate] , tested on beige adipocytes, activity at 6.7 µM: 373

activity at 6.7 µM value, target or system beige adipocytes, for `C=C[C@@]1(C)CC(=O)[C@]2(O)[C@@]3(C)[C@@H](O)CCC(C)(C)[C@@H]3[C@H](O)[C@H](OC(C)=O)[C@@]2(C)O1` : 311

Record `Cc1[nH]c(=O)c(C#N)cc1-c1ccncc1` ; system beige adipocytes; activity at 6.7 µM = 236

Measured activity at 6.7 µM for this entry CC(C)NCC(O)c1cc(O)cc(O)c1 (stereo not drawn) [Metaproterenol Sulfate] on beige adipocytes: 311

Record CC[C@@H]1C(=O)OC[C@@H]1Cc1cncn1C [Pilocarpine nitrate] ; system beige adipocytes; activity at 6.7 µM = 220

Form: item `CC(C)C[C@H](NC(=O)CNC(=O)c1cc(Cl)ccc1Cl)B1OC(=O)C(CC(=O)O)(CC(=O)O)O1` ; test system beige adipocytes; activity at 6.7 µM: 198

Response field activity at 6.7 µM (beige adipocytes) for item CCOC(=O)C1=C(C)NC(C)=C(C(=O)OC)C1c1cccc(Cl)c1Cl (stereo not drawn) : 284

Form field activity at 6.7 µM for item COc1cc2c(cc1OC)-c1c/c(=N\c3c(C)cc(C)cc3C)n(C)c(=O)n1CC2 [Trequinsin HCl] on beige adipocytes: 271

Simply: `Cc1cc(C)c(/C=C2\C(=O)Nc3ccccc32)[nH]1` , beige adipocytes, activity at 6.7 µM = 349
